Test: qHTS assay to identify small molecule antagonists of the sonic hedgehog signaling (Shh) pathway (AID 1259369); further: on the % scale 0 is the no-effect control and ±100 the full control effect; nearly all actives have a fitted effect of over 45% in size
Settings: NIH/3T3 Gli1-Luc reporter, Shh antagonist, luminescence 24 h; series mostly up to 92.4 µM
Inconclusive results are not listed. Calls of active or inactive are those of the source. The call rests on the fitted dose curve.

{"SMILES DATA": "CCOc1cc([N+](=O)[O-])c(OCC)cc1N1CCOCC1", "activity change, negative = inhibition": "inactive"}
{"SMILES DATA": "O=C(OCc1ccccc1)C(=O)OCc1ccccc1", "activity change, negative = inhibition": "inactive"}
{"SMILES DATA": "C[Si](C)=O", "activity change, negative = inhibition": "4.44% [at 8.39 µM] (inactive)"}
{"SMILES DATA": "CCc1ccc(C=O)cc1", "activity change, negative = inhibition": "inactive"}

These entries and their values trace back to PubChem BioAssay (Tox21).
